Test system: A549
Test: Cytotoxicity against human A549 cells assessed as reduction in cell viability incubated for 48 hrs by MTT assay
Type: functional, cell-based
Settings: A549, 48 h
pIC50: −log10 of the molar value.
compounds and their reported pIC50
measured.endpoint: pIC50

INSERT INTO results (compound, limit_operator, result_number) VALUES
  ('O=C(/C=C\Nc1ccc2cc[nH]c2c1)c1nc(-c2ccc(C(F)(F)F)cc2)n2ccccc12', '<', 4.52),
  ('COc1ccc(N/C=C\C(=O)c2nc(-c3ccc(F)cc3)n3ccccc23)cc1', '=', 4.72),
  ('O=C(/C=C\Nc1ccc(Cl)cc1)c1nc(-c2ccc(C(F)(F)F)cc2)n2ccccc12', '=', 4.73),
  ('O=C(/C=C\Nc1cnc2ccccc2c1)c1nc(-c2ccc(C(F)(F)F)cc2)n2ccccc12', '<', 4.52),
  ('O=C(/C=C\Nc1ccc(F)cc1)c1nc(-c2ccc(F)cc2)n2ccccc12', '=', 4.88),
  ('O=C(/C=C\Nc1ccc(F)cc1)c1nc(-c2ccc(C(F)(F)F)cc2)n2ccccc12', '<', 4.52),
  ('COC(=O)Nc1nc2cc(C(=O)c3cccs3)ccc2[nH]1 [NOCODAZOLE]', '=', 5.44),
  ('COc1ccc(N/C=C\C(=O)c2nc(-c3ccc(F)cc3)n3ccccc23)cc1OC', '<', 4.52),
  ('COc1ccc(N/C=C\C(=O)c2nc(-c3ccc(C(F)(F)F)cc3)n3ccccc23)cc1OC', '<', 4.52);

Values compiled from ChEMBL document CHEMBL4665711.
